From: PubChem BioAssay (NCI)

- Tested on: SNB-19 CNS
- assayName: NCI tumour cell line growth inhibition, 48 h; in the data active means GI50 below about 0.43 µM; inactive means the rest
Possible outcomes: 1 for active, -1 for inactive

# compound, assignedCategory
rows = [
    ("CCOC(=O)C1=C(N)Oc2c(sc3c(C)cccc23)C1c1ccc(Cl)cc1 (stereo unspecified)", -1),
    ("O=S(=O)(O)c1ccc(Cl)cc1.[Cd]", -1),
    ("COc1cc(C(=O)NC2CCN(C)CC2)ccc1Nc1ncc2c(n1)N(C1CCCC1)CC(F)(F)C(=O)N2C", 1),
    ("C=CCCC(O)c1ccc(C(O)CCCCCCCCCCCC)o1 (stereo unspecified)", -1),
    ("O=C(c1ccccc1)c1ccc(Cl)c([N+](=O)[O-])c1", -1),
    ("COc1ccc(-c2cc(-c3ccc(O)cc3)nc3nc(=S)[nH]c(N)c23)cc1", -1),
]

---

- Test system: A549 NSCLC
- assayName: NCI tumour cell line growth inhibition, 48 h

# molecule, measuredOn, TGI
records = [
    ("CC(C)(C)c1ccc(-c2nc3ccccc3c(=O)o2)cc1", "A549 NSCLC", "86.6 µM"),
    ("COc1ccc(C(=O)C(c2ccc(OC)cc2)C2C(=O)Oc3ccccc32)cc1 (stereo unspecified)", "A549 NSCLC", "> 100 µM"),
    ("Cc1ccc(-c2c(C#N)c(-c3ccc([N+](=O)[O-])cc3)c(C#N)c(=O)n2NS(=O)(=O)c2ccc(C)cc2)cc1", "A549 NSCLC", "> 100 µM"),
    ("COc1ccc(OC)c(C2CCCc3c2cnc2nc(N)nc(N)c32)c1 (stereo unspecified)", "A549 NSCLC", "> 100 µM"),
    ("Cc1cc2cc(Cl)ccc2nc1C(=O)c1ccccc1", "A549 NSCLC", "> 100 µM"),
    ("Nc1ncnc2c1ncn2[C@@H]1C[C@H]1CO", "A549 NSCLC", "> 100 µM"),
    ("CCOC(=O)C1=C(N)Oc2c(sc3c(C)cccc23)C1c1ccc(Cl)cc1 (stereo unspecified)", "A549 NSCLC", "18.8 µM"),
    ("Cn1c(=O)cc(NNc2ccc(Br)cc2)[nH]c1=O", "A549 NSCLC", "29.8 µM"),
    ("Cc1c2ccccc2c(CO)c2cc(F)c3ccccc3c12", "A549 NSCLC", "> 100 µM"),
    ("O=C(c1ccccn1)c1nnn2ccccc12", "A549 NSCLC", "> 100 µM"),
    ("CC1(C)CC(=O)C(C(c2cccc(O)c2O)C2C(=O)CC(C)(C)CC2=O)C(=O)C1", "A549 NSCLC", "> 100 µM"),
]

---

Listed compounds paired with reported TGI
- Test system: MALME-3M melanoma
- assayName: NCI tumour cell line growth inhibition, 48 h

# compound, uom, sign, TGI
data = [
    ("COc1ccc(-c2nc(N(C)C)c3ccccc3n2)cc1", "µM", "=", 42.1),
    ("COc1ccc(C2=NN(C(=O)c3ccccc3)C(O)(c3cc(F)c(Cl)cc3Cl)C2)cc1OC (stereo not given)", "µM", ">", 100),
    ("COc1nc(/C=N/NC(N)=S)nc(OC)n1", "µM", ">", 100),
    ("COCC1C(=O)c2cc3c(cc2C12C=CC1(C=C2)OCCO1)OCO3 (stereo not given)", "µM", "=", 27.4),
    ("O=C(Cn1c(C(=O)/C=C/c2ccco2)nc2ccccc21)c1ccc(Cl)cc1", "µM", "=", 40.2),
    ("CN(CCCCCl)P(=O)(OCc1ccc([N+](=O)[O-])o1)C(F)(F)c1ccc(CC(=O)N[C@@H](CC(=O)O)C(=O)N[C@@H](Cc2ccc(C(F)(F)P(=O)(OCc3ccc([N+](=O)[O-])o3)N(C)CCCCCl)cc2)C(N)=O)cc1 (stereo not given in full)", "µM", ">", 100),
    ("CC(C)=CCC[C@](C)(O)[C@H]1CC[C@]2(C)[C@@H]1[C@H](O)C[C@@H]1[C@@]3(C)CC[C@H](O[C@@H]4O[C@H](CO)[C@@H](O)[C@H](O)[C@H]4O)C(C)(C)[C@@H]3CC[C@]12C", "µM", "=", 34.6),
    ("Cc1cc(=O)oc2c(CNC(C)C(=O)O)c(O)ccc12 (stereo not given)", "µM", ">", 100),
    ("Cc1c2ccccc2c(CO)c2cc(F)c3ccccc3c12", "µM", ">", 100),
    ("Cc1nc2c(=O)[nH]c3ccccc3c2o1", "µM", ">", 100),
]

---

- Test system: RPMI-8226 leukemia
- assayName: NCI tumour cell line growth inhibition, 48 h

# molecule, GI50
data = [
    ("O=C(c1ccccc1)c1ccc(Cl)c([N+](=O)[O-])c1", "3.64 µM"),
    ("C=C1C(=O)O[C@H]2[C@H]1CC/C(C=Nc1ccc(C(F)(F)F)cc1N)=C\\CC[C@@]1(C)O[C@@H]21", "3.24 µM"),
    ("CC1(C)Cc2cccc(OCC(O)CN3CCN(c4ccc(F)cc4)CC3)c2O1 (centres undefined)", "9.18 µM"),
    ("O=S(=O)(O)c1ccc(Cl)cc1.[Cd]", "32.1 µM"),
    ("O=C1Nc2cc(Cl)ccc2Oc2cc(Oc3ccccc3)ccc21", "5.35 µM"),
    ("O=C(CCc1nnc(-c2c(Cl)cccc2Cl)o1)c1nc2ccccc2[nH]1", "3.61 µM"),
    ("O=C(N/N=C/c1coc2ccc(Cl)cc2c1=O)c1ccncc1", "16.6 µM"),
    ("C=C1C(=O)O[C@H]2[C@H]1CC/C(COC(=O)/C=C\\C(=O)NCc1ccc(Cn3c(=O)sn(-c4ccc(OC)cc4)c3=O)cc1)=C\\CC[C@@]1(C)O[C@@H]21", "0.313 µM"),
    ("CC1(C)CC[C@]2(C(=O)n3ccnc3)CC[C@]3(C)[C@H](C(=O)C=C4[C@@]5(C)C=C(C#N)C(=O)C(C)(C)[C@@H]5CC[C@]43C)[C@@H]2C1", "< 0.01 µM"),
    ("COc1ccccc1CNCCCN1C(=O)c2ccc3c4c(ccc(c24)C1=O)C(=O)N(CCCNCCCCNCCCCN)C3=O", "1.83 µM"),
    ("COc1ccc(-c2cn(-c3ccc(Cl)cc3)c(=S)[nH]2)cc1OC", "4.43 µM"),
    ("CN(C)CCCNC(=O)c1cc(NC(=O)CCNC(=O)c2ccc3c(c2)C(=O)c2ccccc2C3=O)cn1C", "48 µM"),
    ("Fc1ccc(-c2ncn(C3CCNCC3)c2-c2ccnc(Oc3ccccc3)n2)cc1", "> 23.9 µM"),
    ("CCOC(=O)c1c[nH]c2c(OCc3ccccc3)c3ccccc3c(O)c2c1=O", "26.9 µM"),
]

---

- Test system: LOX IMVI melanoma
- assayName: NCI tumour cell line growth inhibition, 48 h

# compound, measuredOn, TGI
measured = [
    ("CS(=O)(=O)N1CCN(Cc2cc3nc(-c4cccc5[nH]ncc45)nc(N4CCOCC4)c3s2)CC1", "LOX IMVI melanoma", "> 100 µM"),
    ("C=C1C(=O)OC2C[C@H](C)C3CC(=O)C(C)=C3CC12 (some centres undefined)", "LOX IMVI melanoma", "30.4 µM"),
    ("CCOC(=O)C1(Cc2ccccc2)Cc2cc3c(cc2C1=O)CCC3 (centres undefined)", "LOX IMVI melanoma", "> 100 µM"),
    ("COC(=O)c1ccccc1/C=C1\\Cc2cc3c(cc2C1=O)CCC3", "LOX IMVI melanoma", "> 100 µM"),
    ("O=C1C(c2ccc([N+](=O)[O-])cc2)=[N+]([O-])c2ccccc21", "LOX IMVI melanoma", "60.9 µM"),
    ("COc1cc(C2c3cc4c(cc3[C@H](NC(=O)c3cccs3)C3COC(=O)[C@H]23)OCO4)cc(OC)c1OC (some centres undefined)", "LOX IMVI melanoma", "> 41 µM"),
    ("COc1ccc(-c2cn(-c3ccc(Cl)cc3)c(=S)[nH]2)cc1OC", "LOX IMVI melanoma", "3.11 µM"),
    ("CCCCOP(=O)(OCCCC)/C(C#N)=C/c1ccc(C)o1", "LOX IMVI melanoma", "> 100 µM"),
    ("N#Cc1ccc(/C=N\\N2C(=O)c3ccccc3C2=O)cc1", "LOX IMVI melanoma", "> 100 µM"),
]

---

Below: a set of entries, each annotated with reported TGI.
- Test system: UO-31 renal
- assayName: NCI tumour cell line growth inhibition, 48 h

# compound, TGI
data = [
    ("Cc1ccc(C2(C)NC(=S)N(NC(N)=S)C2=S)cc1 (centres undefined)", "> 100 µM"),
    ("CN(C)c1ccccc1CC(c1c[nH]c2ccccc12)c1c[nH]c2ccccc12", "23.1 µM"),
    ("Nc1ccn([C@H]2CO[C@@H](CO)O2)c(=O)n1", "> 75.1 µM"),
    ("CCOc1ccc(C2=C(Cl)c3cc(OC)c(OC)cc3C2Cl)cc1 (centres undefined)", "> 100 µM"),
    ("O=C1CSC(=S)N1c1ccc(F)cc1F", "> 100 µM"),
    ("COc1ccc(N2C(=O)CSC2c2cc3cc(Br)ccc3nc2Cl)cc1 (centres undefined)", "> 50 µM"),
    ("COc1ccc(C2=NN(C(=O)c3ccccc3)C(O)(c3cc(F)c(Cl)cc3Cl)C2)cc1OC (centres undefined)", "89.4 µM"),
    ("COc1ccc(/C=C/C(=O)c2nc3ccccc3[nH]2)cc1", "34.6 µM"),
    ("COc1nc(/C=N/NC(N)=S)nc(OC)n1", "> 100 µM"),
]
